test system: HIV-1 patient-derived protease and reverse transcriptase segments (N88S in PR) in resistance test vectors; assay: Phenotypic drug susceptibility test with resistance test vectors from patient samples; type: cell-based; conditions: patient sample RTV-3542

{"compound": "CC(C)(C)NC(=O)[C@@H]1CN(Cc2cccnc2)CCN1C[C@@H](O)C[C@@H](Cc1ccccc1)C(=O)N[C@H]1c2ccccc2C[C@H]1O [indinavir]", "change in susceptibility": "decrease"}
{"compound": "Cc1c(O)cccc1C(=O)N[C@@H](CSc1ccccc1)[C@H](O)CN1C[C@H]2CCCC[C@H]2C[C@H]1C(=O)NC(C)(C)C [nelfinavir]", "change in susceptibility": "decrease"}
{"compound": "CC(C)c1nc(CN(C)C(=O)N[C@H](C(=O)N[C@@H](Cc2ccccc2)C[C@H](O)[C@H](Cc2ccccc2)NC(=O)OCc2cncs2)C(C)C)cs1 [ritonavir]", "change in susceptibility": "decrease"}
